- System: Pseudomonas aeruginosa
- ASSAY_SUMMARY: Antibacterial activity against Pseudomonas aeruginosa ATCC 27853 assessed as growth inhibition after 16 to 18 hr by serial plate dilution method
- Type: functional
Exercise: state measured MIC for each of the molecules provided.
The response must be a number in µg/mL with no trailing unit.

Query: MIC; subject: `Cn1cc(CCC(=O)NCc2c[nH]c3ccc(OC(F)(F)F)cc23)c2cc(Cl)ccc21`
6.25

Query: MIC; subject: `O=C(CCc1c[nH]c2ccc(Cl)cc12)NCc1c[nH]c2ccc(Cl)cc12`
6.25

Query: MIC; subject: `Cn1cc(CCCNC(=O)CCc2cn(C)c3ccc(Cl)cc23)c2cc(Cl)ccc21`
25

Query: MIC; subject: `Cc1[nH]c2ccc(OC(F)(F)F)cc2c1CNC(=O)CCc1cn(C)c2ccc(Cl)cc12`
25

Query: MIC; subject: `Cn1cc(CCC(=O)NCc2cn(C)c3ccc(Cl)cc23)c2cc(Cl)ccc21`
12.5

Query: MIC; subject: `Cn1cc(CCC(=O)NCc2c[nH]c3ccc(Cl)cc23)c2cc(Cl)ccc21`
25

Query: MIC; subject: `O=C(CCc1c[nH]c2ccc(Cl)cc12)NCCCc1c[nH]c2ccc(OC(F)(F)F)cc12`
6.25

Query: MIC; subject: `O=C(CCc1c[nH]c2ccc(Cl)cc12)NCCCc1c[nH]c2ccc(Cl)cc12`
25

Query: MIC; subject: `Cn1cc(CCC(=O)NCCCc2c[nH]c3ccc(OC(F)(F)F)cc23)c2cc(Cl)ccc21`
12.5

Query: MIC; subject: `Cc1c(CCCNC(=O)CCc2cn(C)c3ccc(Cl)cc23)c2cc(OC(F)(F)F)ccc2n1C`
25

Query: MIC; subject: `Cc1c(CCCNC(=O)CCc2c[nH]c3ccc(Cl)cc23)c2cc(OC(F)(F)F)ccc2n1C`
25

====

- System: Escherichia coli
- ASSAY_SUMMARY: Antibacterial activity against Escherichia coli […] assessed as growth inhibition after 16 to 18 hr by serial plate dilution method
- Assay type: functional
EXPERIMENTAL_READOUT: MIC

Query: MIC; subject: `Cn1cc(CNC(=O)CCc2c[nH]c3ccc(Cl)cc23)c2cc(Cl)ccc21`
12.5 µg/mL

Query: MIC; subject: `O=C(CCc1c[nH]c2ccc(Cl)cc12)NCc1c[nH]c2ccc(Cl)cc12`
6.25 µg/mL

Query: MIC; subject: `Cc1[nH]c2ccc(OC(F)(F)F)cc2c1CCCNC(=O)CCc1c[nH]c2ccc(Cl)cc12`
6.25 µg/mL

Query: MIC; subject: `Cn1cc(CCC(=O)NCc2c[nH]c3ccc(OC(F)(F)F)cc23)c2cc(Cl)ccc21`
6.25 µg/mL

Query: MIC; subject: `Cc1c(CNC(=O)CCc2c[nH]c3ccc(Cl)cc23)c2cc(OC(F)(F)F)ccc2n1C`
12.5 µg/mL

Query: MIC; subject: `Cc1c(CCCNC(=O)CCc2c[nH]c3ccc(Cl)cc23)c2cc(OC(F)(F)F)ccc2n1C`
12.5 µg/mL

Query: MIC; subject: `O=C(CCc1c[nH]c2ccc(Cl)cc12)NCc1c[nH]c2ccc(OC(F)(F)F)cc12`
6.25 µg/mL

Query: MIC; subject: `O=C(CCc1c[nH]c2ccc(Cl)cc12)NCCCc1c[nH]c2ccc(Cl)cc12`
25 µg/mL

Query: MIC; subject: `Cc1c(CCCNC(=O)CCc2cn(C)c3ccc(Cl)cc23)c2cc(OC(F)(F)F)ccc2n1C`
12.5 µg/mL

====

- Tested on: Aspergillus flavus
- ASSAY_SUMMARY: Antifungal activity against Aspergillus flavus NCIM 524 assessed as growth inhibition at […] to […] ug/ml after 3 to 4 days by agar well diffusion method
- Assay type: functional
EXPERIMENTAL_READOUT: diameter of the inhibition zone (DIZ) (mm)
The response must be a number in mm with no trailing unit.

Query: diameter of the inhibition zone (DIZ); subject: `Cc1c(CCCNC(=O)CCc2cn(C)c3ccc(Cl)cc23)c2cc(OC(F)(F)F)ccc2n1C`
16

Query: diameter of the inhibition zone (DIZ); subject: `O=C(CCc1c[nH]c2ccc(Cl)cc12)NCCCc1c[nH]c2ccc(Cl)cc12`
16

Query: diameter of the inhibition zone (DIZ); subject: `Cn1cc(CCCNC(=O)CCc2cn(C)c3ccc(Cl)cc23)c2cc(Cl)ccc21`
11

Query: diameter of the inhibition zone (DIZ); subject: `Cn1cc(CNC(=O)CCc2c[nH]c3ccc(Cl)cc23)c2cc(Cl)ccc21`
16

Query: diameter of the inhibition zone (DIZ); subject: `Cc1[nH]c2ccc(OC(F)(F)F)cc2c1CCCNC(=O)CCc1c[nH]c2ccc(Cl)cc12`
16

====

- Test system: Talaromyces marneffei
- ASSAY_SUMMARY: Antifungal activity against Talaromyces marneffei assessed as growth inhibition after 3 to 4 days by serial plate dilution method
- Assay type: functional
EXPERIMENTAL_READOUT: MIC

Query: MIC; subject: `Cc1[nH]c2ccc(OC(F)(F)F)cc2c1CNC(=O)CCc1cn(C)c2ccc(Cl)cc12`
25 µg/mL

Query: MIC; subject: `Cn1cc(CCC(=O)NCc2c[nH]c3ccc(Cl)cc23)c2cc(Cl)ccc21`
6.25 µg/mL

Query: MIC; subject: `O=C(CCc1c[nH]c2ccc(Cl)cc12)NCc1c[nH]c2ccc(Cl)cc12`
25 µg/mL

Query: MIC; subject: `Cc1c(CNC(=O)CCc2cn(C)c3ccc(Cl)cc23)c2cc(OC(F)(F)F)ccc2n1C`
25 µg/mL

Query: MIC; subject: `O=C(CCc1c[nH]c2ccc(Cl)cc12)NCc1c[nH]c2ccc(OC(F)(F)F)cc12`
6.25 µg/mL

Query: MIC; subject: `Cn1cc(CCC(=O)NCCCc2c[nH]c3ccc(Cl)cc23)c2cc(Cl)ccc21`
25 µg/mL

Query: MIC; subject: `Cn1cc(CCC(=O)NCc2cn(C)c3ccc(Cl)cc23)c2cc(Cl)ccc21`
12.5 µg/mL

Query: MIC; subject: `Cn1cc(CCCNC(=O)CCc2c[nH]c3ccc(Cl)cc23)c2cc(Cl)ccc21`
25 µg/mL

Query: MIC; subject: Cc1cc(C2CCCCC2)n(O)c(=O)c1.NCCO [CICLOPIROX OLAMINE]
6.25 µg/mL

Query: MIC; subject: `Cn1cc(CCC(=O)NCCCc2c[nH]c3ccc(OC(F)(F)F)cc23)c2cc(Cl)ccc21`
25 µg/mL

Query: MIC; subject: `Cc1c(CCCNC(=O)CCc2c[nH]c3ccc(Cl)cc23)c2cc(OC(F)(F)F)ccc2n1C`
6.25 µg/mL

Query: MIC; subject: `Cn1cc(CCCNC(=O)CCc2cn(C)c3ccc(Cl)cc23)c2cc(Cl)ccc21`
25 µg/mL

Query: MIC; subject: `Cc1c(CCCNC(=O)CCc2cn(C)c3ccc(Cl)cc23)c2cc(OC(F)(F)F)ccc2n1C`
6.25 µg/mL

Query: MIC; subject: `Cn1cc(CNC(=O)CCc2c[nH]c3ccc(Cl)cc23)c2cc(Cl)ccc21`
6.25 µg/mL

Query: MIC; subject: `Cc1c(CNC(=O)CCc2c[nH]c3ccc(Cl)cc23)c2cc(OC(F)(F)F)ccc2n1C`
12.5 µg/mL

Query: MIC; subject: `O=C(CCc1c[nH]c2ccc(Cl)cc12)NCCCc1c[nH]c2ccc(OC(F)(F)F)cc12`
25 µg/mL

Query: MIC; subject: `Cn1cc(CCC(=O)NCc2c[nH]c3ccc(OC(F)(F)F)cc23)c2cc(Cl)ccc21`
12.5 µg/mL

Query: MIC; subject: `Cn1cc(CCCNC(=O)CCc2c[nH]c3ccc(Cl)cc23)c2cc(OC(F)(F)F)ccc21`
12.5 µg/mL
